Data origin, for the record: the supplement of paper PMC10307832

Each entry below lists one item and its recorded relative viability value.
Tested on: NCI-H1299
experiment notes: relative viability (nuclei count vs DMSO), 5 days (fraction); higher = more cells survive
applied conditions: first compound 1 µM
experimental readout: relative viability

[[record]]
molecule = "NC(=O)Nc1cc(-c2cccc(F)c2)sc1C(=O)N[C@H]1CCCNC1 [AZD7762] + C[C@]1(O)C[C@@H](c2nc(-c3ccc4ccc(-c5ccccc5)nc4c3)c3c(N)nccn32)C1 [Linsitinib] (partner 1 µM)"
experimental_readout = "relative viability"
observed = 0.323

[[record]]
molecule = "NC(=O)Nc1cc(-c2cccc(F)c2)sc1C(=O)N[C@H]1CCCNC1 [AZD7762] + CC1(C)CCC(c2ccc(Cl)cc2)=C(CN2CCN(c3ccc(C(=O)NS(=O)(=O)c4ccc(N[C@H](CCN5CCOCC5)CSc5ccccc5)c(S(=O)(=O)C(F)(F)F)c4)cc3)CC2)C1 [Navitoclax] (partner 0.5 µM)"
experimental_readout = "relative viability"
observed = 0.976

[[record]]
molecule = "NC(=O)Nc1cc(-c2cccc(F)c2)sc1C(=O)N[C@H]1CCCNC1 [AZD7762] + O=C(c1cc(Cc2n[nH]c(=O)c3ccccc23)ccc1F)N1CCN(C(=O)C2CC2)CC1 [Olaparib] (partner 8 µM)"
experimental_readout = "relative viability"
observed = 0.312

[[record]]
molecule = "NC(=O)Nc1cc(-c2cccc(F)c2)sc1C(=O)N[C@H]1CCCNC1 [AZD7762] + CS(=O)(=O)CCNCc1ccc(-c2ccc3ncnc(Nc4ccc(OCc5cccc(F)c5)c(Cl)c4)c3c2)o1 [Lapatinib] (partner 2 µM)"
experimental_readout = "relative viability"
observed = 0.289

